# System: SEM cells
# assay-notes: cell viability relative to DMSO control; higher = less cytotoxic
# test-conditions: RPMI 5 mM glucose + 10% FBS; 48 h; 15.4 µM
parameter: cell viability (%)
Answers are plain numbers, in %.

Here is how some compounds turned out for cell viability.
1) CNC(=O)c1ccc(N2C(=S)N(c3ccc(C#N)c(C(F)(F)F)c3)C(=O)C23CCC3)cc1F ... 98.3
2) CCOC(=O)\C1=C(/C)N\C2=C(C1C3=CC=C(C=C3)C4=CC=CC=C4)\C(=O)CC(C)(C)C2 (stereo unspecified) ... 96.1
3) C[C@@H]\1CC(=O)N\N=C1C2=CC=C(NN=C(C#N)C#N)C=C2 ... 35.3
4) O=c1[nH]c2ccccc2n1C1CCN(Cc2ccc(-c3nc4cc5nc[nH]c5cc4nc3-c3ccccc3)cc2)CC1 ... 60.2
5) CC(C)(C)c1[nH]cnc1/C=c1\[nH]c(=O)/c(=C/c2ccccc2)[nH]c1=O ... 2.93

Would you mind listing cell viability for each of the following compounds?
1. O=C1c2c(O)ccc(O)c2C(=O)c2c(NCCNCCO)ccc(NCCNCCO)c21
2. COc1cc2ncnc(Nc3cc(Br)c(O)c(Br)c3)c2cc1OC
3. C[C@@H]1CC[C@H]2[C@@H](C)C(=O)O[C@@H]3O[C@@]4(C)CC[C@@H]1[C@]32OO4

1. 2.93
2. 102
3. 116

Count: 3. Required value per item: cell viability.
1. O=C(O)C1=NC(C(=O)O)CC(/C=C/N2c3cc(O)c(OC4OC(CO)C(O)C(O)C4O)cc3CC2C(=O)O)=C1 (stereo unspecified)
2. NC/1=N/C2=C([NH]C=N2)C(=S)N1
3. C[C@@]12C[C@@]3(O)O[C@@H](O1)[C@]1(COC(=O)c4ccccc4)[C@H]3C[C@@]12O[C@@H]1O[C@H](CO)[C@@H](O)[C@H](O)[C@H]1O

1: 101; 2: 108; 3: 105

###

# System: P12-Ichikawa
# assay-notes: cell viability relative to DMSO control; higher = less cytotoxic
# test-conditions: RPMI 5 mM glucose + 10% dialyzed FBS; 48 h; 1.71 µM
parameter: cell viability (%)
One number for each entry, in %.

1) C[C@@]12C[C@@]3(O)O[C@@H](O1)[C@]1(COC(=O)c4ccccc4)[C@H]3C[C@@]12O[C@@H]1O[C@H](CO)[C@@H](O)[C@H](O)[C@H]1O ... 104

Give cell viability for each of the items listed below.
1. CN1\C(=C(\O)C2=CC=CC=C2[S+]1([O-])=O)C(=O)NC3=NC=C(C)S3
2. Cc1cn([C@@H]2O[C@H](CO)[C@@H](O)[C@@H]2F)c(=O)[nH]c1=O
3. C\C1=C(\C=C(C#N)/C(=O)N1)C2=C[N]3C=CN=C3C=C2
4. CC/1=C(/N2[C@H](SC1)[C@H](NC(=O)[C@H](N)\C3=C\C\C=C/C3)C2=O)C(O)=O
5. CCN1\C=C(\C(O)=O)C(=O)C2=CC=C(C)N=C12
6. C=C[C@H]1CN2CC[C@H]1C[C@H]2[C@H](O)c1ccnc2ccc(OC)cc12
7. FC1=CC=C(SC/2=N/N3\C=N/C(=O)/C(=C3/C=C2)C4=C(Cl)C=CC=C4Cl)C(=C1)F
8. CC(N)C12CC3CC(CC(C3)C1)C2 (stereo not given)

1: 87.8; 2: 123; 3: 78.3; 4: 117; 5: 87.4; 6: 95.3; 7: 120; 8: 125

Item: CCOC(=O)C/1=C(O)/C(=O)N(CC2=CC=CC=C2)C1 | cell viability: 106

###

Task for the reader: assign each of the following molecules its reported cell viability.
# Tested on: SEM cells
# assay-notes: cell viability relative to DMSO control; higher = less cytotoxic
# test-conditions: RPMI 5 mM glucose + 10% FBS; 48 h; 0.19 µM
Answers are plain numbers, in %.

Before answering, review these 5 worked examples.
1. CCN1\C=C(\C(O)=O)C(=O)C2=CC=C(C)N=C12 ... 108
2. CC/1=C(/N2[C@H](SC1)[C@H](NC(=O)[C@H](N)\C3=C\C\C=C/C3)C2=O)C(O)=O ... 120
3. CCC(C)(Oc1ccc(C2(c3ccc(OC(C)(CC)C(=O)O)cc3)CCCCC2)cc1)C(=O)O (configuration not stated) ... 111
4. CC(C)C(=O)Oc1ccc(CO)cc1[C@H](CCN(C(C)C)C(C)C)c1ccccc1 ... 92.5
5. CNC[C@H](O)c1ccc(O)c(O)c1 ... 30.8

List cell viability for every entry below, keeping the order given.
1. C[S+]([O-])(=O)C1=CC=C(C=C1)C/2=C(/C(=O)OC2)C3=CC=CC=C3
2. CCC(C)(C)c1ccc(CC(C)CN2C[C@@H](C)O[C@@H](C)C2)cc1 (some centres not stated)
3. CC(C)C[C@@H](C=O)NC(=O)[C@H](CC(C)C)NC(=O)[C@H](CC(C)C)NC(=O)OCc1ccccc1
4. CNC1CCC(N(Cc2cccc(-c3ccncc3)c2)C(=O)c2sc3c(F)ccc(F)c3c2Cl)CC1 (configuration not stated)

122
36.3
127
95.9

Provide each entry's cell viability from the list below.
1. CNC(=O)c1ccc(N2C(=S)N(c3ccc(C#N)c(C(F)(F)F)c3)C(=O)C23CCC3)cc1F
2. CC(C)(C)c1[nH]cnc1/C=c1\[nH]c(=O)/c(=C/c2ccccc2)[nH]c1=O
3. CCOC(=O)C/1=C(O)/C(=O)N(CC2=CC=CC=C2)C1
4. O=C(Nc1ccc(F)c(C(F)(F)F)c1)Nc1nnc(-c2ccncc2)s1
5. CSCC[C@@H](NC(=O)[C@@H](Cc1ccccc1)NC(=O)CNC(=O)CNC(=O)[C@@H](N)Cc1ccc(O)cc1)C(=O)O
6. CCOC(=O)\C1=C(/C)N\C2=C(C1C3=CC=C(C=C3)C4=CC=CC=C4)\C(=O)CC(C)(C)C2 (configuration not stated)
7. CN(C)[C@H]\1[C@@H]2C[C@H]3C(=C(O)\[C@]2(O)C(=O)\C(=C1O)C(N)=O)/C(=O)C4=C(O)C=CC=C4[C@@]3(C)O
8. CC1(C)O[C@@H]2C[C@H]3[C@@H]4CCC5=CC(=O)C=C[C@]5(C)[C@H]4[C@@H](O)C[C@]3(C)[C@]2(C(=O)CO)O1

98.3
17.9
111
105
104
108
104
83.2

###

# Test system: NOMO1
# assay-notes: cell viability relative to DMSO control; higher = less cytotoxic
# test-conditions: RPMI 5 mM glucose + 10% dialyzed FBS; 48 h; 0.19 µM
Please provide measured cell viability for the entries that follow.
Answers are plain numbers, in %.

Example compounds with recorded cell viability:
1) CNC(=O)c1ccc(N2C(=S)N(c3ccc(C#N)c(C(F)(F)F)c3)C(=O)C23CCC3)cc1F ... 90.6
2) COc1cc(OC)c(/C=C/[S+](=O)([O-])Cc2ccc(OC)c(NCC(=O)[O][Na])c2)c(OC)c1 ... 37.5
3) Cc1cc2c(F)c(Oc3ncnn4cc(OC[C@@H](C)O)c(C)c34)ccc2[nH]1 ... 100
4) C[S+](=O)([O-])N1CCc2c(-c3cnc(N)nc3)nc(N3CCOCC3)nc21 ... 96.9
5) CC(C)C(=O)Oc1ccc(CO)cc1[C@H](CCN(C(C)C)C(C)C)c1ccccc1 ... 79.2

Lab note: each compound below needs its cell viability filled in.
1. CC(C)(C)c1[nH]cnc1/C=c1\[nH]c(=O)/c(=C/c2ccccc2)[nH]c1=O
2. Cc1cccc(Nc2nc(-c3ccncc3)cs2)c1
3. CCC(C)(Oc1ccc(C2(c3ccc(OC(C)(CC)C(=O)O)cc3)CCCCC2)cc1)C(=O)O (centres undefined)
4. Cc1cn([C@@H]2O[C@H](CO)[C@@H](O)[C@@H]2F)c(=O)[nH]c1=O
5. CCC[C@H]1C[C@H](C(=O)N[C@@H]([C@@H]2O[C@@H](SC)[C@@H](O)[C@@H](O)[C@H]2O)[C@H](C)Cl)N(C)C1
6. CN1C[C@H]2c3ccccc3Oc3ccc(Cl)cc3[C@@H]2C1
7. Cc1cn(-c2cc(NC(=O)c3ccc(C)c(Nc4nccc(-c5cccnc5)n4)c3)cc(C(F)(F)F)c2)cn1
8. Cc1c(NC(=O)OC[C@@H]2COCCN2)cn2ncnc(Nc3ccc4c(cnn4Cc4cccc(F)c4)c3)c12

27.8
135
94
119
119
95.2
114
86.5

cell viability reported for this compound Nc1ncnc2c1c(-c1cnc3[nH]ccc3c1)nn2C1CCCC1 : 100

###

# Test system: NOMO1
# assay-notes: cell viability relative to DMSO control; higher = less cytotoxic
# test-conditions: RPMI 5 mM glucose + 10% FBS; 48 h; 5.12 µM
Would you kindly list cell viability for each of these molecules?

// solved cases for cell viability follow
1. CSCC[C@@H](NC(=O)[C@@H](Cc1ccccc1)NC(=O)CNC(=O)CNC(=O)[C@@H](N)Cc1ccc(O)cc1)C(=O)O ... 95.4%
2. O=C(Nc1c(Cl)cncc1Cl)c1ccc(OC(F)F)c(OCC2CC2)c1 ... 102%
3. NC(=O)c1ccc(I)c([N+](=O)[O-])c1 ... 133%

Please go through the list and note cell viability for each molecule.
1. Cn1cnc2c1c(=O)[nH]c(=O)n2C
2. Cc1cc2c(F)c(Oc3ncnn4cc(OC[C@@H](C)O)c(C)c34)ccc2[nH]1
3. NC/1=N/C2=C([NH]C=N2)C(=S)N1
4. C[C@@H]1[C@H](O)[C@@H](C)/C=C/C=C/C=C/C=C/C=C/C=C/C=C/[C@H](O[C@@H]2O[C@H](C)[C@@H](O)[C@H](N)[C@@H]2O)C[C@@H]2O[C@](O)(C[C@@H](O)C[C@@H](O)[C@H](O)CC[C@@H](O)C[C@@H](O)CC(=O)O[C@H]1C)C[C@H](O)[C@H]2C(=O)O

["99.3%", "88.8%", "109%", "125%"]

Batch request: cell viability per item, same order as input.
1. O=c1[nH]c2ccccc2n1C1CCN(Cc2ccc(-c3nc4cc5nc[nH]c5cc4nc3-c3ccccc3)cc2)CC1
2. C=C(C)[C@H]1Cc2c(ccc3c2O[C@@H]2COc4cc(OC)c(OC)cc4[C@@H]2C3=O)O1

["111%", "63.8%"]

Reported cell viability for CNc1nccc(-c2cccnc2Oc2cc(C(=O)Nc3cccc(C(F)(F)F)c3)ccc2C)n1 was 112%
